- System: Aphis craccivora
- Protocol notes: whole plant or invertebrate
- Format: in vivo
- Assay context: 500 ppm; wingless adults, immersion 5 seconds, counted after 24 hours
Result type: Aphis craccivora Mortality (%)
Numbers only, in %.

Please review the entries below; each comes with its answer.
{"Molecule": "COC(=O)C1(CBr)Nc2c([S+]([O-])C(F)(F)F)c(C#N)nn2-c2c(Cl)cc(C(F)(F)F)cc21 (stereo not drawn)", "Aphis craccivora Mortality (%)": 100}
{"Molecule": "N#Cc1nn2c(c1[S+]([O-])C(F)(F)F)NC(Cc1ccccc1)(C(=O)C(F)(F)F)c1cc(C(F)(F)F)cc(Cl)c1-2 (stereo not drawn)", "Aphis craccivora Mortality (%)": 100}
{"Molecule": "CNC(=O)CC1Nc2c(OC(F)(F)F)c(C#N)nn2-c2cncc(Cl)c21 (stereo not drawn)", "Aphis craccivora Mortality (%)": 100}
{"Molecule": "CC[S+]([O-])c1c(C#N)nn2c1NC(CC(=O)OC)(C(=O)OC)c1cc(C(F)(F)F)cc(Cl)c1-2 (stereo not drawn)", "Aphis craccivora Mortality (%)": 100}
{"Molecule": "COC(=O)CC1(C(=O)OC)Nc2c([S+]([O-])C(F)(F)F)c(C#N)nn2-c2c(C(F)(F)F)ccc(Cl)c21 (stereo not drawn)", "Aphis craccivora Mortality (%)": 100}

Go through the items and report each one's Aphis craccivora Mortality (%).
1. N#Cc1nn2c(c1[S+]([O-])C(F)(F)F)NC(Cl)(CC(F)(F)F)c1c(Cl)cncc1-2 (stereo not drawn)
2. CC=CC1Nc2c([S+]([O-])C(F)(F)F)c(C#N)nn2-c2cncc(Cl)c21 (stereo not drawn)

[out]
1. 100
2. 100

Go through the items and report each one's Aphis craccivora Mortality (%).
1. COC(=O)C(C)C1Nc2c([S+]([O-])C(F)(F)F)c(C#N)nn2-c2cncc(Cl)c21 (stereo not drawn)
2. N#Cc1nn2c(c1[S+]([O-])C(F)(F)F)NC(Cc1ccccc1)(C(=O)C(F)(F)F)c1c(Cl)cc(C(F)(F)F)cc1-2 (stereo not drawn)
3. COC(=O)CC1(C(=O)OC)Nc2c(OC(F)(F)F)c(C#N)nn2-c2c(Cl)cc(C(F)(F)F)cc21 (stereo not drawn)
4. N#Cc1nn2c(c1[S+]([O-])C(F)(F)F)NC(Cl)c1c(Cl)cncc1-2 (stereo not drawn)
5. COC(=O)CC1(C(=O)OC)Nc2c([S+]([O-])C(F)(F)F)c(C#N)nn2-c2cc(C(F)(F)F)c(Cl)cc21 (stereo not drawn)
6. COC(=O)C1Nc2c([S+]([O-])C(F)(F)F)c(C(F)(F)F)nn2-c2cncc(Cl)c21 (stereo not drawn)
7. COC(=O)C1(CC(=O)OCC(F)(F)F)Nc2c([S+]([O-])C(F)(F)F)c(C#N)nn2-c2cc(C(F)(F)F)cc(Cl)c21 (stereo not drawn)

[out]
100
95
100
100
100
100
100

Go through the items and report each one's Aphis craccivora Mortality (%).
1. CNC1(CC#N)Nc2c([S+]([O-])C(F)(F)F)c(C#N)nn2-c2cncc(Cl)c21 (stereo not drawn)
2. N#CCC1(C(=O)C(F)(F)F)Nc2c([S+]([O-])C(F)(F)F)c(C#N)nn2-c2cncc(Cl)c21 (stereo not drawn)
3. N#Cc1nn2c(c1[S+]([O-])C(F)(F)F)NC(CCCl)(C(=O)C(F)(F)F)c1c(Cl)cc(C(F)(F)F)cc1-2 (stereo not drawn)
4. CC=CC1Nc2c([S+]([O-])C(F)(F)F)c(C(F)(F)F)nn2-c2c(Cl)cc(C(F)(F)F)cc21 (stereo not drawn)
5. COC(=O)CC1(C(=O)OC)Nc2c([S+]([O-])C(F)(F)F)c(C#N)nn2-c2c1ccc(Cl)c2C(F)(F)F (stereo not drawn)
6. COC(=O)CC1(C(=O)OC)Nc2c([S+]([O-])C(F)(F)F)c(C(C)=O)nn2-c2c(Cl)cc(C(F)(F)F)cc21 (stereo not drawn)

[out]
1: 89; 2: 100; 3: 100; 4: 92; 5: 100; 6: 90

---

- Tested on: Spodoptera exigua
- Protocol notes: whole plant or invertebrate
- Type: in vivo
- Assay context: 500 ppm; 2nd-instar larvae; leaf immersion feeding; 24 hours
Result type: Spodoptera exigua Mortality (%) 500 ppm
One number for each entry, in %.

Please review the entries below; each comes with its answer.
{"Molecule": "COC(=O)CC1Nc2c([S+]([O-])C(F)(F)F)c(C(F)(F)F)nn2-c2ncc(C(F)(F)F)cc21 (stereo not drawn)", "Subject of test": "Spodoptera exigua", "Spodoptera exigua Mortality (%) 500 ppm": 100}
{"Molecule": "COC(=O)C1Nc2c([S+]([O-])C(F)(F)F)c(C#N)nn2-c2ncc(C(F)(F)F)cc21 (stereo not drawn)", "Subject of test": "Spodoptera exigua", "Spodoptera exigua Mortality (%) 500 ppm": 99}

Turning now to a further record.
[in] May I ask what Spodoptera exigua Mortality (%) 500 ppm has been recorded for COC(=O)CC1(C(=O)OC)Nc2c([S+]([O-])C(F)(F)F)c(C#N)nn2-c2ncc(C(F)(F)F)cc21 (stereo not drawn) ?
[out] 100

---

- Test system: Solenopsis invicta
- Protocol notes: whole plant or invertebrate
- Assay type: in vivo
- Assay context: 100 ppm; 72 h; water test tube poison-feeding
Result type: Solenopsis invicta Mortality (%) 72 h
Answers are plain numbers, in %.

Go through the items and report each one's Solenopsis invicta Mortality (%) 72 h.
1. [O-][S+](c1c(C(F)(F)F)nn2c1NC(Br)c1cc(C(F)(F)F)cc(Cl)c1-2)C(F)(F)F (stereo not shown)
2. N#Cc1nn2c(c1[S+]([O-])C(F)(F)F)NC(CCCl)(C(=O)C(F)(F)F)c1c(Cl)cc(C(F)(F)F)cc1-2 (stereo not shown)
3. [O-][S+](c1c(C(F)(F)F)nn2c1NC(Br)c1c(Cl)cncc1-2)C(F)(F)F (stereo not shown)
4. N#CCC1(C(F)(F)F)Nc2c([S+]([O-])C(F)(F)F)c(C#N)nn2-c2c(Cl)cc(C(F)(F)F)cc21 (stereo not shown)

[out]
[90, 97, 96, 98]

---

- Tested on: Bombyx mori L.
- Protocol notes: Toxicity test on 2nd-instar larvae of Bombyx mori L., leaf immersion feeding method
- Type: in vivo
- Assay context: 1000 ppm, 24 hours
Field: label. Allowed values: class 1 (Toxicity determination Bombyx mori L. Mortality (%) < 6%) or class 0 (Toxicity determination Bombyx mori L. Mortality (%) >= 6%).

[in] Does the reported Toxicity determination Bombyx mori L. Mortality (%) of "C=CC(=O)Nc1ccc2c(c1)-n1cc(C#N)c(C#N)c1NC2(C#N)C#N" stay below 6%?
[out] class 1

[in] Does the reported Toxicity determination Bombyx mori L. Mortality (%) of "CC1(C)Nc2c(C#N)c(SCc3ccccc3)nn2-c2cnc(F)nc21" stay below 6%?
[out] class 0

[in] Does the reported Toxicity determination Bombyx mori L. Mortality (%) of C=CC1(C(F)(F)F)Nc2c([S+]([O-])C(F)(F)F)c(C#N)nn2-c2c(Cl)cc(C(F)(F)F)cc21 (centres unmarked) stay below 6%?
[out] class 0

[in] Does the reported Toxicity determination Bombyx mori L. Mortality (%) of "COc1ccc(-c2cn3c(c2C#N)NC(C#N)(C#N)c2ccc([N+](=O)[O-])cc2-3)cc1" stay below 6%?
[out] class 1

[in] Does the reported Toxicity determination Bombyx mori L. Mortality (%) of "N#Cc1cn2c(c1C#N)NC(C#N)(C#N)c1ccc([N+](=O)[O-])cc1-2" stay below 6%?
[out] class 1

[in] Does the reported Toxicity determination Bombyx mori L. Mortality (%) of Nc1cc2n(n1)-c1cnccc1C(F)(CC(F)(F)F)N2 (centres unmarked) stay below 6%?
[out] class 1

[in] Does the reported Toxicity determination Bombyx mori L. Mortality (%) of C=CC1(CCl)Nc2c(-c3ccccc3C(F)(F)F)c(C#N)nn2-c2c(Cl)cc(C(F)(F)F)cc21 (centres unmarked) stay below 6%?
[out] class 0

---

- System: Solenopsis invicta
- Protocol notes: whole plant or invertebrate
- Assay type: in vivo
- Assay context: 100 ppm; 24 h; water test tube poison-feeding
- From the text: (4) Insecticidal Activity on Solenopsis invicta. As a hymenoptera pests and a social insect, Solenopsis invicta is one of the most destructive invasive organisms. Solenopsis invicta were used as test objects and tested by using a water test tube poison-feeding method. […]
Result type: Solenopsis invicta Mortality (%) 24 h
Param answer (str): number followed by unit.

{"Molecule": "CNC1(CC#N)Nc2c([S+]([O-])C(F)(F)F)c(C#N)nn2-c2cncc(Cl)c21 (centres unmarked)", "Result": "19%"}
{"Molecule": "COC(=O)C1(CC#N)Nc2c([S+]([O-])C(F)(F)F)c(C#N)nn2-c2cncc(Cl)c21 (centres unmarked)", "Result": "19%"}
{"Molecule": "COC(=O)CC1(C(=O)OC)Nc2c([S+]([O-])C(F)(F)F)c(C#N)nn2-c2cncc(Cl)c21 (centres unmarked)", "Result": "20%"}
{"Molecule": "N#Cc1nn2c(c1[S+]([O-])C(F)(F)F)NC(Cl)(CC(F)(F)F)c1c(Cl)cncc1-2 (centres unmarked)", "Result": "15%"}

Go through the items and report each one's Solenopsis invicta Mortality (%) 24 h.
1. [O-][S+](c1c(C(F)(F)F)nn2c1NC(Br)c1c(Cl)cncc1-2)C(F)(F)F (centres unmarked)
2. CCCCOC(=O)CC1(C(=O)OCCCC)Nc2c([S+]([O-])C(F)(F)F)c(C#N)nn2-c2c(Cl)cc(C(F)(F)F)cc21 (centres unmarked)
3. COC(=O)C1(CC(C)=O)Nc2c([S+]([O-])C(F)(F)F)c(C#N)nn2-c2c(Cl)cc(C(F)(F)F)cc21 (centres unmarked)
4. CC(=O)C1Nc2c([S+]([O-])C(F)(F)F)c(C(F)(F)F)nn2-c2c(Cl)cc(C(F)(F)F)cc21 (centres unmarked)

[out]
["20%", "26%", "26%", "36%"]

These data points were gathered from patent US11401271B2.
